Items are presented alongside their recorded total protein half-life in vivo.
assay text: total protein half-life in vivo (active degradation + dilution); higher = more stable protein
experimental context: E. coli NCM3722 delta-lon; growth: N-lim chemostat; doubling time 6 h
The answer is to be given in h; state only the numeric part.

sequence string	measurement label	units symbol	meas value
MVELKEPLATLWRGKDAFAEVKKLNGEVFRELETRRTLRFELSGKSYFLKWHKGTTLKEIIKNLLSLRMPVLGADREWHAIHRLSDVGVDTMKGIGFGEKGLNPLTRASFIITEDLTPTISLEDYCADWAVNPPDIRVKRMLIARVATMVRKMHTAGINHRDCYICHFLLHLPFTGREDELKISVIDLHRAQIRAKVPRRWRDKDLIGLYFSSMNIGLTQRDIWRFMKVYFGMPLRKILSLEQNLLNMASVKAERIKERTQRKGL	total protein half-life in vivo	h	5.58

Prompt: Which total protein half-life in vivo value belongs to MQKIVIVANGAPYGSESLFNSLRLAIALREQESNLDLRLFLMSDAVTAGLRGQKPGEGYNIQQMLEILTAQNVPVKLCKTCTDGRGISTLPLIDGVEIGTLVELAQWTLSADKVLTF [P0AB52] ?
Response: 5.96

###

Items are presented alongside their recorded total protein half-life in vivo.
assay text: total protein half-life in vivo (active degradation + dilution); higher = more stable protein
experimental context: E. coli NCM3722 delta-clpP; growth: N-lim chemostat; doubling time 6 h
The answer is to be given in h; state only the numeric part.

Known total protein half-life in vivo results, listed for orientation:
sequence string	units symbol	meas value
MAEAQNDPLLPGYSFNAHLVAGLTPIEANGYLDFFIDRPLGMKGYILNLTIRGQGVVKNQGREFVCRPGDILLFPPGEIHHYGRHPEAREWYHQWVYFRPRAYWHEWLNWPSIFANTGFFRPDEAHQPHFSDLFGQIINAGQGEGRYSELLAINLLEQLLLRRMEAINESLHPPMDNRVREACQYISDHLADSNFDIASVAQHVCLSPSRLSHLFRQQLGISVLSWREDQRISQAKLLLSTTRMPIATVGRNVGFDDQLYFSRVFKKCTGASPSEFRAGCEEKVNDVAVKLS [P0A9E0]	h	1.95
MKKVLIAALIAGFSLSATAAETIRFATEASYPPFESIDANNQIVGFDVDLAQALCKEIDATCTFSNQAFDSLIPSLKFRRVEAVMAGMDITPEREKQVLFTTPYYDNSALFVGQQGKYTSVDQLKGKKVGVQNGTTHQKFIMDKHPEITTVPYDSYQNAKLDLQNGRIDGVFGDTAVVTEWLKDNPKLAAVGDKVTDKDYFGTGLGIAVRQGNTELQQKLNTALEKVKKDGTYETIYNKWFQK	h	5.44

Attention now shifts to the item below.
Prompt: Which total protein half-life in vivo value belongs to MSNTDASGEKRVTGTSERREQIIQRLRQQGSVQVNDLSALYGVSTVTIRNDLAFLEKQGIAVRAYGGALICDSTTPSVEPSVEDKSALNTAMKRSVAKAAVELIQPGHRVILDSGTTTFEIARLMRKHTDVIAMTNGMNVANALLEAEGVELLMTGGHLRRQSQSFYGDQAEQSLQNYHFDMLFLGVDAIDLERGVSTHNEDEARLNRRMCEVAERIIVVTDSSKFNRSSLHKIIDTQRIDMIIVDEGIPADSLEGLRKAGVEVILVGE [P0ACK2] ?
Response: 6.24

###

assay text: total protein half-life in vivo (active degradation + dilution); higher = more stable protein
experimental context: wild type E. coli NCM3722; growth: C-lim chemostat; doubling time 12 h
measurement label: total protein half-life in vivo (h)
The answer is to be given in h; state only the numeric part.

Prompt: Which total protein half-life in vivo value belongs to MDMHSGTFNPQDFAWQGLTLTPAAAIHIRELVAKQPGMVGVRLGVKQTGCAGFGYVLDSVSEPDKDDLLFEHDGAKLFVPLQAMPFIDGTEVDFVREGLNQIFKFHNPKAQNECGCGESFGV ?
Response: 4.5

Prompt: Which total protein half-life in vivo value belongs to MVFRIASSPYTHNQRQTSRIMLLVLLAAVPGIAAQLWFFGWGTLVQILLASVSALLAEALVLKLRKQSVAATLKDNSALLTGLLLAVSIPPLAPWWMVVLGTVFAVIIAKQLYGGLGQNPFNPAMIGYVVLLISFPVQMTSWLPPHEIAVNIPGFIDAIQVIFSGHTASGGDMNTLRLGIDGISQATPLDTFKTSVRAGHSVEQIMQYPIYSGILAGAGWQWVNLAWLAGGVWLLWQKAIRWHIPLSFLVTLALCAMLGWLFSPETLAAPQIHLLSGATMLGAFFILTDPVTASTTNRGRLIFGALAGLLVWLIRSFGGYPDGVAFAVLLANITVPLIDYYTRPRVYGHRKG ?
Response: 13

Prompt: Which total protein half-life in vivo value belongs to MFILWYSASSTFGKDSDIVMGVRAQQKEKTRRSLVEAAFSQLSAERSFASLSLREVAREAGIAPTSFYRHFRDVDELGLTMVDESGLMLRQLMRQARQRIAKGGSVIRTSVSTFMEFIGNNPNAFRLLLRERSGTSAAFRAAVAREIQHFIAELADYLELENHMPRAFTEAQAEAMVTIVFSAGAEALDVGVEQRRQLEERLVLQLRMISKGAYYWYRREQEKTAIIPGNVKDE [P0ACU5] ?
Response: 11.2

###

assay text: total protein half-life in vivo (active degradation + dilution); higher = more stable protein
experimental context: wild type E. coli NCM3722; growth: C-lim chemostat; doubling time 12 h
measurement label: total protein half-life in vivo (h)
The answer is to be given in h; state only the numeric part.

Prompt: Which total protein half-life in vivo value belongs to MNTLTFLLSTVIELYTMVLLLRIWMQWAHCDFYNPFSQFVVKVTQPIIGPLRRVIPAMGPIDSASLLVAYILSFIKAIVLFKVVTFLPIIWIAGLLILLKTIGLLIFWVLLVMAIMSWVSQGRSPIEYVLIQLADPLLRPIRRLLPAMGGIDFSPMILVLLLYVINMGVAEVLQATGNMLLPGLWMAL ?
Response: 10.6

###

assay text: total protein half-life in vivo (active degradation + dilution); higher = more stable protein
experimental context: wild type E. coli NCM3722; growth: C-lim chemostat; doubling time 12 h
Items are presented alongside their recorded total protein half-life in vivo.
The answer is to be given in h; state only the numeric part.

sequence string	measurement label	units symbol	meas value
MVLWQSDLRVSWRAQWLSLLIHGLVAAVILLMPWPLSYTPLWMVLLSLVVFDCVRSQRRINARQGEIRLLMDGRLRWQGQEWSIVKAPWMIKSGMMLRLRSDGGKRQHLWLAADSMDEAEWRDLRRILLQQETQR	total protein half-life in vivo	h	6.78

Attention now shifts to the item below.
Prompt: Which total protein half-life in vivo value belongs to MQLNKVLKGLMIALPVMAIAACSSNKNASNDGSEGMLGAGTGMDANGGNGNMSSEEQARLQMQQLQQNNIVYFDLDKYDIRSDFAQMLDAHANFLRSNPSYKVTVEGHADERGTPEYNISLGERRANAVKMYLQGKGVSADQISIVSYGKEKPAVLGHDEAAYSKNRRAVLVY [P0A912] ?
Response: 10.7

###

assay text: total protein half-life in vivo (active degradation + dilution); higher = more stable protein
experimental context: wild type E. coli NCM3722; growth: N-lim chemostat; doubling time 12 h
measurement label: total protein half-life in vivo
# output: numeric value plus its unit

sequence string	measurement label	meas value
MFKPHVTVACVVHAEGKFLVVEETINGKALWNQPAGHLEADETLVEAAARELWEETGISAQPQHFIRMHQWIAPDKTPFLRFLFAIELEQICPTQPHDSDIDCCRWVSAEEILQASNLRSPLVAESIRCYQSGQRYPLEMIGDFNWPFTKGVI [P0AEI6]	total protein half-life in vivo	6.25 h
MKKVAIVGLGWLGMPLAMSLSARGWQVTGSKTTQDGVEAARMSGIDSYLLRMEPELVCDSDDLDALMDADALVITLPARRSGPGDEFYLQAVQELVDSALAHRIPRIIFTSSTSVYGDAQGTVKETTPRNPVTNSGRVLEELEDWLHNLPGTSVDILRLAGLVGPGRHPGRFFAGKTAPDGEHGVNLVHLEDVIGAITLLLQAPKGGHIYNICAPAHPARNVFYPQMARLLGLEPPQFRNSLDSGKGKIIDGSRICNELGFEYQYPDPLVMPLE [P0AD12]	total protein half-life in vivo	7.41 h

Prompt: Which total protein half-life in vivo value belongs to MIKKIGVLTSGGDAPGMNAAIRGVVRSALTEGLEVMGIYDGYLGLYEDRMVQLDRYSVSDMINRGGTFLGSARFPEFRDENIRAVAIENLKKRGIDALVVIGGDGSYMGAMRLTEMGFPCIGLPGTIDNDIKGTDYTIGFFTALSTVVEAIDRLRDTSSSHQRISVVEVMGRYCGDLTLAAAIAGGCEFVVVPEVEFSREDLVNEIKAGIAKGKKHAIVAITEHMCDVDELAHFIEKETGRETRATVLGHIQRGGSPVPYDRILASRMGAYAIDLLLAGYGGRCVGIQNEQLVHHDIIDAIENMKRPFKGDWLDCAKKLY [P0A796] ?
Response: 5.77 h
